Reported melting point by item:
Structures can show the parent of a compound that is named as a salt.
Quantity Name: melting point (°C)

| Compound | Reported Measurement |
| --- | --- |
| COC(=O)c1cc(C(=O)N[C@@H](Cc2ccccc2)[C@H](O)CNC2(c3cccc(C(F)(F)F)c3)CC2)n2c1CN(C(=O)OC(C)(C)C)CC2 | 136 |
| CCN(CC)C(=O)c1cc(C(=O)N[C@@H](Cc2ccccc2)[C@H](O)CNC2(c3cccc(C(F)(F)F)c3)CC2)n2c1CNCC2 (as salt: HCl) | 143 |
| CCCC(CCC)N1CCn2c(C(=O)N[C@@H](Cc3ccccc3)[C@H](O)CNC3(c4cccc(C(F)(F)F)c4)CC3)ccc2C1=O.Cl | 176 |
| CCCC(CCC)N1CCn2c(C(=O)N[C@@H](Cc3ccccc3)[C@H](O)CNCc3cccc(C(F)(F)F)c3)ccc2C1=O.Cl | 168 |
| CCCC(CCC)N1CCn2c(C(=O)N[C@@H](Cc3cc(F)cc(F)c3)[C@H](O)CNC3(c4cccc(C(F)(F)F)c4)CC3)ccc2C1=O.Cl | 183 |
| CC(C)(C)OC(=O)N1CCn2c(C(=O)N[C@@H](Cc3ccccc3)[C@H](O)CNC3(c4cccc(C(F)(F)F)c4)CC3)cc(C(=O)O)c2C1 | 134.5 |

----------
Experimental System: purified recombinant form of human BACE1 aspartyl protease (Homo sapiens, UniProt P56817)
Construct: hexahistidine (C)
Sequence (P56817 46-501): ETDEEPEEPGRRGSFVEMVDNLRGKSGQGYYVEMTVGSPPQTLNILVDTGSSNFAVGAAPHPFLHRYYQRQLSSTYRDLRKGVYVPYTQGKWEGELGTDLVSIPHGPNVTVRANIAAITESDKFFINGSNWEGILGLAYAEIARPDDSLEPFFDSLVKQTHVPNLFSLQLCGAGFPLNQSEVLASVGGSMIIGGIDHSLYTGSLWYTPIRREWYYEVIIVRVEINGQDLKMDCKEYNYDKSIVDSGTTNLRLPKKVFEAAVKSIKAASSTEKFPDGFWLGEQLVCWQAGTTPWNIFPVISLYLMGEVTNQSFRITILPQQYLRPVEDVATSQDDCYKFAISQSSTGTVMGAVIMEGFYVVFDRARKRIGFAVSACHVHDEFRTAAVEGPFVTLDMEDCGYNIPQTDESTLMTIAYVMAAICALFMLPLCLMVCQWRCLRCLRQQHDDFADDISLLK
Assay Remarks: in vitro inhibition of β-secretase (BACE1) activity, cleavage of fluorogenic peptide substrate FS1 (FRET)
Condition Parameters: recombinant human BACE1 10 nM, substrate FS1 5 μM, sodium acetate buffer pH 4.5, 37° C., 45 minutes; read-out: IC50 (concentration of product giving 50% inhibition of the enzyme activity)
pIC50: −log10 of the molar value.
Quantity Name: pIC50

| Compound | Experimental System | Reported Measurement |
| --- | --- | --- |
| CCN(CC)C(=O)c1cc(C(=O)N[C@@H](Cc2ccccc2)[C@H](O)CNC2(c3cccc(C(F)(F)F)c3)CC2)n2c1CNCC2 [Compound 5] | purified recombinant form of human BACE1 aspartyl protease (Homo sapiens, UniProt P56817) | 6.51 |
| CCCC(CCC)N1CCn2c(C(=O)N[C@@H](Cc3ccccc3)[C@H](O)CNCc3cccc(C(F)(F)F)c3)ccc2C1=O.Cl [Compound 9] | purified recombinant form of human BACE1 aspartyl protease (Homo sapiens, UniProt P56817) | 6.43 |
| CCCC(CCC)N1CCn2c(C(=O)N[C@@H](Cc3cc(F)cc(F)c3)[C@H](O)CNC3(c4cccc(C(F)(F)F)c4)CC3)ccc2C1=O.Cl [Compound 7] | purified recombinant form of human BACE1 aspartyl protease (Homo sapiens, UniProt P56817) | 6.32 |
| CCCC(CCC)N1CCCn2c(C(=O)N[C@@H](Cc3ccccc3)[C@H](O)CNCc3cccc(C(F)(F)F)c3)ccc2C1=O [Compound 11] | purified recombinant form of human BACE1 aspartyl protease (Homo sapiens, UniProt P56817) | 5.85 |
